- System: SW480
- measurement.description: TCF/Wnt firefly luciferase reporter signal relative to plate median (fraction of plate median); higher = higher Wnt reporter signal
- particulars: 5 µM; treatment time 24 h; reporter: 7TFP
TCF/Wnt firefly luciferase reporter signal of 1 or higher: Satisfied. Under 1: Not satisfied.

Solved cases (3 shown):
- CC[C@@]1(O)C(=O)OCc2c1cc1n(c2=O)Cc2cc3cc(O)ccc3nc2-1: Not satisfied
- CC(=O)NS(=O)(=O)c1ccc(NC(=O)c2ccccc2C(=O)O)cc1: Satisfied
- CN1CCC(=C2c3ccccc3CCc3sccc32)CC1: Not satisfied

Threshold query (TCF/Wnt firefly luciferase reporter signal >= 1) on CCc1c(O)cc(C(C)CC)oc1=O (stereo not drawn) [Germicidin]
Satisfied

Threshold query (TCF/Wnt firefly luciferase reporter signal >= 1) on COC(=O)C1=C(C)NC(C)=C(C(=O)OC)C1c1ccccc1[N+](=O)[O-]
Satisfied

Threshold query (TCF/Wnt firefly luciferase reporter signal >= 1) on O=C(CCCN1CC=C(n2c(=O)[nH]c3ccccc32)CC1)c1ccc(F)cc1
Not satisfied

Threshold query (TCF/Wnt firefly luciferase reporter signal >= 1) on CC(=O)OCC(=O)[C@@]12OC(C)(C)O[C@@H]1C[C@H]1[C@@H]3C[C@H](F)C4=CC(=O)C=C[C@]4(C)[C@@]3(F)[C@@H](O)C[C@@]12C
Satisfied

Threshold query (TCF/Wnt firefly luciferase reporter signal >= 1) on O=c1cc(-c2ccc(O)cc2)oc2ccc(O)cc12
Satisfied

Threshold query (TCF/Wnt firefly luciferase reporter signal >= 1) on O=c1c(O)c(-c2ccc(O)cc2O)oc2cc(O)cc(O)c12
Satisfied

Threshold query (TCF/Wnt firefly luciferase reporter signal >= 1) on CCC1(C)CC(=O)NC1=O (stereo not drawn)
Not satisfied

Threshold query (TCF/Wnt firefly luciferase reporter signal >= 1) on OC(CCN1CCCCC1)(c1ccccc1)C1CCCCC1 (stereo not drawn)
Not satisfied

* * *

- System: DLD1
- measurement.description: cell viability (CellTiter-Glo) relative to plate median (fraction of plate median); higher = more viable cells
- particulars: 5 µM; treatment time 24 h; reporter: 7TFP
Labelling: cell viability reported below 1 becomes satisfied; at or above becomes not satisfied.

Solved cases (5 shown):
• CCCCNC(=O)NS(=O)(=O)c1ccc(C)cc1 = satisfied
• CC(=O)OC1CCC2(C)C(=CCC3C2CCC2(C)C(C(C)CCCC(C)C)CCC32)C1 (centres undefined) = not satisfied
• O=c1cc(-c2ccccc2)oc2c(O)c(O)ccc12 = not satisfied
• CC(C)CC(NC(=O)OCC1c2ccccc2-c2ccccc21)C(=O)O (stereo in doubt) = not satisfied
• CC(=O)OCC1=C(C(=O)O)N2C(=O)[C@@H](NC(=O)Cc3cccs3)[C@H]2SC1 = not satisfied

Lab note: next compound to report on.
# TODO verify cell viability < 1 strictly for this compound: CNc1ccccc1C(=O)N1CCc2c([nH]c3ccccc23)C1=O
not satisfied

* * *

- Test system: DLD1
- measurement.description: cell viability (CellTiter-Glo) relative to plate median (fraction of plate median); higher = more viable cells
- particulars: 5 µM; treatment time 24 h; reporter: 7TFP
Labelling: cell viability reported below 1 becomes condition met; at or above becomes condition not met.

Solved cases (5 shown):
• COCCc1ccc(OCC(O)CNC(C)C)cc1 (stereo not drawn) = condition not met
• CC(=O)CCCCn1c(=O)c2c(ncn2C)n(C)c1=O = condition met
• CCCC1O[C@@H]2C[C@H]3[C@@H]4CCC5=CC(=O)C=C[C@]5(C)[C@H]4[C@@H](O)C[C@]3(C)[C@]2(C(=O)CO)O1 (stereo partly drawn) = condition not met
• C[C@]12CCC(=O)C=C1CC[C@@H]1[C@@H]2C(=O)C[C@@]2(C)[C@H]1CC[C@]2(O)C(=O)CO = condition met
• CC(=O)c1cc2c(cc1O)OC(C)(C)C=C2 = condition not met

# TODO verify cell viability < 1 strictly for this molecule: CC(=O)[C@@]1(O)CC[C@H]2[C@@H]3CCC4=CC(=O)CC[C@]4(C)[C@H]3CC[C@@]21C
condition met

# TODO verify cell viability < 1 strictly for this molecule: CC(Oc1ccccc1)C(=O)N[C@@H]1C(=O)N2[C@@H]1SC(C)(C)[C@@H]2C(=O)O (stereo partly drawn)
condition met

# TODO verify cell viability < 1 strictly for this molecule: C[C@]12CC[C@@H]3c4ccc(O)cc4CC[C@H]3[C@@H]1CC[C@@H]2O
condition met

# TODO verify cell viability < 1 strictly for this molecule: CN1CCN(C2=Nc3ccccc3Oc3ccc(Cl)cc32)CC1
condition met

# TODO verify cell viability < 1 strictly for this molecule: CC(C)[C@H](NC(=O)[C@H](Cc1ccc(O)cc1)NC(=O)[C@@H](NC(=O)C(F)(F)F)C(C)C)C(=O)O
condition met

# TODO verify cell viability < 1 strictly for this molecule: CC(=O)S[C@@H]1CC2=CC(=O)CC[C@]2(C)[C@H]2CC[C@@]3(C)[C@@H](CC[C@@]34CCC(=O)O4)[C@H]12
condition not met

# TODO verify cell viability < 1 strictly for this molecule: CCOC(=O)CCC(=O)O[C@H]1[C@H](O[C@@H]2[C@@H](C)[C@H](O[C@H]3C[C@@](C)(OC)[C@@H](O)[C@H](C)O3)[C@@H](C)C(=O)O[C@H](CC)[C@@](C)(O)[C@H](O)[C@@H](C)C(=O)[C@H](C)C[C@@]2(C)O)O[C@H](C)C[C@@H]1N(C)C
condition not met

# TODO verify cell viability < 1 strictly for this molecule: CCCN(CCC)S(=O)(=O)c1ccc(C(=O)O)cc1
condition not met

From: the supplement of paper PMC6522484
